# measurement-protocol: chemical genetic growth profiling, strain panel (AID 1159580);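 also: tested at 20 µM; growth read once vehicle control cultures reached saturation at 30 °C; 1 = growth at the plate median or of vehicle wells; lower values mean less growth of the strain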
# stated-conditions: S. cerevisiae deletion strains, growth OD, locus YML124C, strain tub3, active compounds read low
Hit rate of the full screen: of about 5,500 compounds, about 2,000 (36%) were called active. Roughly 18% stayed inconclusive and do not appear here. The list shows a part of the results.
property-name: normalized growth

The examples below pair each entry with its known result.
>  <molecule>
OC[C@H]1O[C@@H](Oc2ccc(O)cc2)[C@H](O)[C@@H](O)[C@@H]1O

>  <normalized growth>
1.02 (inactive)

$$$$
>  <molecule>
C[C@H]1C(=O)CCC2[C@]3(C)CC[C@@]4(C)C5CC(C)(C)CC[C@]5(C)CC[C@]4(C)C3CC[C@@]21C (stereo partly drawn)

>  <normalized growth>
1.02 (inactive)

$$$$
>  <molecule>
CNC(=O)Oc1ccccc1OC(C)C

>  <normalized growth>
0.991 (inactive)

$$$$
>  <molecule>
COC1=CC23CCCN2CCc2cc4c(cc2C3C1O)OCO4 (stereo not drawn)

>  <normalized growth>
1 (inactive)

$$$$
>  <molecule>
COC(=O)C(O)[C@H]1C(C)(C)[C@@H](OC(C)=O)[C@@H]2CC3=C4CC(=O)O[C@@H](c5ccoc5)[C@]4(C)CCC3[C@@]1(C)C2=O (stereo partly drawn)

>  <normalized growth>
1 (inactive)

$$$$
>  <molecule>
O=C(/C=C/c1ccccc1)c1c(O)cc(O)cc1O

>  <normalized growth>
1.01 (inactive)

$$$$
>  <molecule>
CC[C@H]1OC(=O)[C@H](C)[C@@H](O[C@H]2C[C@@](C)(OC)[C@@H](O)[C@H](C)O2)[C@H](C)[C@@H](O[C@@H]2O[C@H](C)C[C@H](N(C)C)[C@H]2O)[C@](C)(O)C[C@@H](C)/C(=N/OCOCCOC)[C@H](C)[C@@H](O)[C@]1(C)O

>  <normalized growth>
0.999 (inactive)

$$$$
>  <molecule>
O[C@H]1[C@H](O)[C@@H](O)C2OC[C@H]1O2

>  <normalized growth>
0.992 (inactive)

$$$$
>  <molecule>
COc1cc(OC)c2c(OC)c(-c3ccc4c(c3)OCO4)c(=O)oc2c1

>  <normalized growth>
0.986 (inactive)

$$$$
>  <molecule>
CC(=O)OC1CCC2(O)CC1(C)CCC1C2CC1(C)C (stereo not drawn)

>  <normalized growth>
0.982 (inactive)

$$$$

The molecule identified as "O=C(O)CC[N+](=O)[O-]" registered its normalized growth at 0.98 (inactive)

The molecule identified as "CC(=O)NS(=O)(=O)c1ccc(N)cc1" registered its normalized growth at 0.977 (inactive)

The molecule identified as "O=C(Nc1ccc([N+](=O)[O-])cc1Cl)c1cc(Cl)ccc1O" registered its normalized growth at 1.17 [resistant] (active)

The molecule identified as "CCCc1ncc(C[n+]2ccccc2C)c(N)n1" registered its normalized growth at 0.989 (inactive)

The molecule identified as "O=C(/C=C/c1ccccc1)c1ccc(O[C@@H]2O[C@H](CO)[C@@H](O)[C@H](O)[C@H]2O)cc1O" registered its normalized growth at 0.897 (active)

The molecule identified as CNC(C)[C@@H]1CC[C@@H](N)[C@@H](OC2[C@@H](N)C[C@@H](N)[C@H](OC3OC[C@](C)(O)[C@H](NC)[C@H]3O)[C@H]2O)O1 (stereo partly drawn) registered its normalized growth at 1.01 (inactive)

The molecule identified as "CC(=O)CCCCn1c(=O)c2c(ncn2C)n(C)c1=O" registered its normalized growth at 0.996 (inactive)

The molecule identified as "CNC(=O)Oc1cccc2c1OC(C)(C)C2" registered its normalized growth at 0.999 (inactive)

The molecule identified as CC(=O)Oc1c(C)c(C)c2c(c1C)CCC(C)(CCCC(C)CCCC(C)CCCC(C)C)O2 (stereo not drawn) registered its normalized growth at 0.991 (inactive)

The molecule identified as "O=C1NS(=O)(=O)c2ccccc21" registered its normalized growth at 0.999 (inactive)

The molecule identified as COc1ccccc1OCC(O)COC(N)=O (stereo not drawn) registered its normalized growth at 0.988 (inactive)

The molecule identified as "COc1cc(O)c2c(c1)C(=O)c1cc(C)cc(O)c1C2=O" registered its normalized growth at 1 (inactive)

The molecule identified as "COc1ccc(-c2c(OC)c3c(OC)c4c(cc3oc2=O)OC(C)(C)C=C4)cc1" registered its normalized growth at 1.03 (inactive)

The molecule identified as "Cn1c(=O)[nH]c2nc[nH]c2c1=O" registered its normalized growth at 0.996 (inactive)

Reference for the values: PubChem BioAssay AID1159580
